# Tested system: 100P Btk enzyme (activated full-length Btk) (Homo sapiens (Human), UniProt Q06187)
# Sequence (Q06187 whole entry): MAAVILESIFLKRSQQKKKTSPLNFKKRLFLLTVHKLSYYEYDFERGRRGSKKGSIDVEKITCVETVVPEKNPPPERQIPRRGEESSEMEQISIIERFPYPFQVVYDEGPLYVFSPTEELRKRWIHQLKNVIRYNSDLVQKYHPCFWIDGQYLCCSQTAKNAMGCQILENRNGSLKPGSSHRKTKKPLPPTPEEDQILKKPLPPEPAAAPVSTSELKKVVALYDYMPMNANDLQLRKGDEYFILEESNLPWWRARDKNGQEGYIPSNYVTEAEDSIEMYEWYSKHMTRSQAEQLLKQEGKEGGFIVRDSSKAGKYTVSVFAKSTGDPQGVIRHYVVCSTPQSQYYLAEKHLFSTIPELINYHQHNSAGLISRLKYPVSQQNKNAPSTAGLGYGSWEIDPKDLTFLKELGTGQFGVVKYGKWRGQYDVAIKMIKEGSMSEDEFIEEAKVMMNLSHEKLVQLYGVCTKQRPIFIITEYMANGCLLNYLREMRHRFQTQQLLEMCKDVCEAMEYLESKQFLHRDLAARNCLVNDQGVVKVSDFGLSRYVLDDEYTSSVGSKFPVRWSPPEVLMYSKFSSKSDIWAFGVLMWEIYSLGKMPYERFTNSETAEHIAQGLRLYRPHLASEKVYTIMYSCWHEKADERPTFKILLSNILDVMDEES
# Assay text: 100P Btk Enzyme Activity Assay (LANCE TR-FRET)
# Assay type: biochemical
# Condition notes: activated Btk (100P), 25 μM ATP, 60 minute compound and enzyme incubation; top concentration 1000 nM; read-out: Btk binding IC50 (nM) with 100 P
For each entry below, report its log10 of IC50 value.
# values: log10(IC50), units nM

query: Would you mind telling me what log10 of IC50 value was observed for CC(C)n1cc(-c2cc(-c3cccc(-n4ncc5cc(C(C)(C)C)cc(F)c5c4=O)c3CO)cc3c(N)n[nH]c23)cn1 ?
result: 0.58

query: Would you mind telling me what log10 of IC50 value was observed for CC(C)(C)c1cc(F)c2c(c1)CCN(c1cccc(-c3cc(C(N)=O)c4[nH]nc(N)c4c3)c1CO)C2=O ?
result: 2.16

query: Would you mind telling me what log10 of IC50 value was observed for CC(C)(C)c1cc(F)c2c(=O)n(-c3cccc(-c4cc(-c5cccnc5)c5[nH]nc(N)c5c4)c3CO)ncc2c1 ?
result: 2.48

query: Would you mind telling me what log10 of IC50 value was observed for CC(C)(C)c1cc(F)c2c(=O)n(-c3cccc(-c4cc(-c5cnn6c5CCCC6)c5[nH]nc(N)c5c4)c3CO)ncc2c1 ?
result: 2.56

query: Would you mind telling me what log10 of IC50 value was observed for COCCn1cc(-c2cc(-c3cccc(-n4ncc5cc(C(C)(C)C)cc(F)c5c4=O)c3CO)cc3c(N)n[nH]c23)cn1 ?
result: 0.72

query: Would you mind telling me what log10 of IC50 value was observed for Cc1cc2[nH]nc(N)c2cc1-c1cccc(-n2ncc3cc(C(C)(C)C)cc(F)c3c2=O)c1CO ?
result: 2.53

query: Would you mind telling me what log10 of IC50 value was observed for CC(C)(C)c1cc(F)c2c(=O)n(-c3cccc(-c4cc(C(=O)O)c5[nH]nc(N)c5c4)c3CO)ncc2c1 ?
result: 2.05

query: Would you mind telling me what log10 of IC50 value was observed for CC(C)(C)c1cc(F)c2c(=O)n(-c3cccc(-c4cc(-c5cnn(CC(=O)O)c5)c5[nH]nc(N)c5c4)c3CO)ncc2c1 ?
result: 1.30

query: Would you mind telling me what log10 of IC50 value was observed for Cn1cc(-c2cc(-c3cccc(NC(=O)c4cc5c(s4)CCCC5)c3CO)cc3c(N)n[nH]c23)cn1 ?
result: 1.06

query: Would you mind telling me what log10 of IC50 value was observed for CC(C)(C)c1cc(F)c2c(=O)n(-c3cccc(-c4cc(-c5ccccc5)c5[nH]nc(N)c5c4)c3CO)ncc2c1 ?
result: 2.63

query: Would you mind telling me what log10 of IC50 value was observed for Cc1nn(C)cc1-c1cc(-c2cccc(-n3ncc4cc(C(C)(C)C)cc(F)c4c3=O)c2CO)cc2c(N)n[nH]c12 ?
result: 1.84

query: Would you mind telling me what log10 of IC50 value was observed for Cn1cc(-c2cc(-c3cccc(-n4ncc5cc(C(C)(C)C)cc(F)c5c4=O)c3CO)cc3c(N)n[nH]c23)cn1 ?
result: 0.72

These entries and their values trace back to patent US10246457B2.
